Below, each of the molecules is paired with its reported IC50 value.
- ASSAYED_SYSTEM: hmGluR1 receptor (Homo sapiens)
- Construct: expressed in transfected cells
- Sequence (Q13255 19-1194): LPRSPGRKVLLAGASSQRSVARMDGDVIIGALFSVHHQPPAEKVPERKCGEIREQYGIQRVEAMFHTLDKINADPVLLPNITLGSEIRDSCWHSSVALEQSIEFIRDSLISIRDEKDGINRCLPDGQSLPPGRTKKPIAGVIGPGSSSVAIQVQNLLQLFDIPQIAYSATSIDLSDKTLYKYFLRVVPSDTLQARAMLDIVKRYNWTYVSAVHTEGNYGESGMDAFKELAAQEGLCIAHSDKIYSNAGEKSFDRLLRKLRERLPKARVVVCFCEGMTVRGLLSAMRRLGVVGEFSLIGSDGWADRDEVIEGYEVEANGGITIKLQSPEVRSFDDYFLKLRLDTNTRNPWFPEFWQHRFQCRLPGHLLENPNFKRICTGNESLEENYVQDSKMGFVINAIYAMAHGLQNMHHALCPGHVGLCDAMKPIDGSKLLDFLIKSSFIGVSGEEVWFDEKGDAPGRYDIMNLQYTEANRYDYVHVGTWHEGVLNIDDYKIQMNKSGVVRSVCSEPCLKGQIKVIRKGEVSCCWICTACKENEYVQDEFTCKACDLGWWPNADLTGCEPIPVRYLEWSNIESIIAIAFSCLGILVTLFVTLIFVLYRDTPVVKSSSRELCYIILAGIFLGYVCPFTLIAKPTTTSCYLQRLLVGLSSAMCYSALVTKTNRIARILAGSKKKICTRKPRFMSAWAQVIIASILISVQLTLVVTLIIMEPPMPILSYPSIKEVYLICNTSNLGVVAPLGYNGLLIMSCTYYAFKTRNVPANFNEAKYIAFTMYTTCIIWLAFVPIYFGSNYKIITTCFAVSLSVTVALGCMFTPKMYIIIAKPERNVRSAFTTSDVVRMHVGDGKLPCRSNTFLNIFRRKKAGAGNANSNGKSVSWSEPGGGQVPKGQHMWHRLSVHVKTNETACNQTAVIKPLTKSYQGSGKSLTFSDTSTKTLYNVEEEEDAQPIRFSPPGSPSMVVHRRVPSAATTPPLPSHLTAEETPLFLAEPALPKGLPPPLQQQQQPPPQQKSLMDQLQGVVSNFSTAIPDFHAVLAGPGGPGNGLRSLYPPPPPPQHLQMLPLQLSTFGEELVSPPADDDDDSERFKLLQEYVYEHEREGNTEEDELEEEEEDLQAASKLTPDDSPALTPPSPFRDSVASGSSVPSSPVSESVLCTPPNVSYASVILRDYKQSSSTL
- METHOD_SUMMARY: IC50 determination: intracellular calcium mobilization (FLIPR) upon Quisqualate stimulation in CHO cells stably expressing hmGluR1
- Assay type: cell-based
- EXPERIMENTAL_CONTEXT: against Quisqualate 1 μM (EC80), FLIPR calcium mobilization, read-out: IC50 Class
QUANTITY_NAME: IC50

>>> print(df.to_string())
                                    molecule  quantity_name      test_value
 0  COCCNc1ncnc2sc3c(=O)n(-c4ccc(C)cc4)cnc3c12 [95DJ]           IC50         < 50 nM
 1  Cc1ccc(-n2cnc3c(sc4nc(C(F)(F)F)nc(N)c43)c2=O)cc1 [71E]           IC50       > 1000 nM
 2  COc1ccc(Nc2ncnc3sc4c(=O)n(C)cnc4c23)cc1 [95GN]           IC50       > 1000 nM
 3  COc1ccc(Nc2ncnc3sc4c(=O)n(-c5ccc(Cl)cc5)cnc4c23)cc1 [95GH]           IC50    50 to 150 nM
 4  CC(C)(O)c1ccnc2sc3c(=O)n(-c4ccc(Cl)cc4)cnc3c12 [compound 186]           IC50       > 1000 nM
 5  CCc1ccnc2sc3c(=O)n(-c4ccc(Cl)cc4)cnc3c12 [29K]           IC50         < 50 nM
 6  C#CCNc1ncnc2sc3c(=O)n(-c4ccc5occc5c4)cnc3c12 [95ES]           IC50         < 50 nM
 7  O=c1c2sc3nccc(N4CCC[C@H]4CO)c3c2ncn1-c1ccc(Cl)cc1 [28GM]           IC50       > 1000 nM
 8  C=C(C)CNc1ccnc2sc3c(=O)n(-c4ccc(Cl)cc4)cnc3c12 [28FD]           IC50         < 50 nM
 9  COCCNc1ccnc2sc3c(=O)n(-c4ccc(OC)cc4)cnc3c12 [28DC]           IC50         < 50 nM
10  COc1cccc2sc3c(=O)n(-c4ccc(Cl)cc4)cnc3c12 [103S]           IC50  150 to 1000 nM
11  COCCCNc1ccnc2sc3c(=O)n(-c4ccc(C)cc4)cnc3c12 [28CZ]           IC50         < 50 nM
12  CCN(C)c1ccnc2sc3c(=O)n(-c4ccc(F)cc4)cnc3c12 [28ID]           IC50         < 50 nM
13  COc1ccc(-n2cnc3c(sc4ncnc(Nc5cccc(C#N)c5)c43)c2=O)cc1 [190I]           IC50  150 to 1000 nM
14  CNc1c(C#N)cnc2sc3c(=O)n(-c4ccc(Cl)cc4)cnc3c12 [compound 189]           IC50    50 to 150 nM
15  C=CCOc1ccnc2sc3c(=O)n(-c4ccc(Br)cc4)cnc3c12 [66J]           IC50         < 50 nM
16  COc1ccc(-n2cnc3c(sc4nc(N)cc(N(C)C)c43)c2=O)cc1 [59F]           IC50         < 50 nM
17  CCN(C)c1ccnc2sc3c(=O)n(-c4ccc5c(c4)OCO5)cnc3c12 [28IE]           IC50         < 50 nM
18  Cc1ccc(-n2cnc3c(sc4ncnc(N(C)C5CC5)c43)c2=O)cc1 [95DZ]           IC50         < 50 nM
19  COCCCNc1ccnc2sc3c(=O)n(-c4ccc(O)cc4)cnc3c12 [28HW]           IC50         < 50 nM
